- PROTOCOL: Viability qHTS for spleen associated tyrosine kinase inhibitor (SYKi) naive MV4-11 cells (AID 1963823); further: nearly all actives have a fitted effect of over 40% in size
- MEASUREMENT_CONTEXT: MV4-11 AML viability, CellTiter-Glo luminescence, 72 h; series mostly up to 45 µM
Results filed as inconclusive are left out. Activity calls are given as the source filed them. The call rests on the fitted dose curve; in most records, active means well fitted cell-killing curve with a large enough effect; inconclusive means small, poorly fitted or top-dose-only effect, or effect the other way; inactive means no such curve, though single readings can be large or run the other way.
Your response should consist of one outcome taken from active, inactive

Lab log entry: COC1=CC(=O)O[C@@H](/C=C/c2ccccc2)C1 — outcome as called in the assay?
inactive

====

- PROTOCOL: Viability qHTS for spleen associated tyrosine kinase inhibitor (SYKi) drug resistant MV4-11 cells (AID 1963824); further: nearly all actives have a fitted effect of over 35% in size
- MEASUREMENT_CONTEXT: SYKi-resistant MV4-11 viability, CellTiter-Glo, 72 h; series mostly up to 45 µM
Inconclusive results are not listed. Activity calls are given as the source filed them. Calls follow the shape of the dose curve; as a rule, active = well fitted cell-killing curve with a large enough effect; inconclusive = small, poorly fitted or top-dose-only effect, or effect the other way; inactive = no such curve, though single readings can be large or run the other way.
Your response should consist of one outcome taken from t (active), f (inactive)

COMPOUND | CLASSIFICATION
Clc1ccccc1N1CCNCC1 | f
OC(O)C(Cl)(Cl)Cl | f
CC(=O)OC1CC(O)C2(C)C(CC(OC(C)=O)C3(C)C2CCC2(C)C(c4ccoc4)C(=O)C4OC423)C1(C)C (centres undefined) | t

Now look at this one.
Lab log entry: CC(=O)OC[C@]12[C@H](OC(C)=O)C(=O)[C@@H]3[C@@H](O)[C@@]14O[C@@]3(C)COC(=O)c1cccnc1[C@@H](C)[C@H](C)C(=O)O[C@@H]([C@H](OC(C)=O)[C@@H]2OC(C)=O)[C@]4(C)O — outcome as called in the assay?
t

====

- SUBJECT_OF_TEST: Polyprotein P1234 (Chikungunya virus (strain S27-African prototype)) (UniProt Q8JUX6)
- Sequence (Q8JUX6 whole entry, looked up): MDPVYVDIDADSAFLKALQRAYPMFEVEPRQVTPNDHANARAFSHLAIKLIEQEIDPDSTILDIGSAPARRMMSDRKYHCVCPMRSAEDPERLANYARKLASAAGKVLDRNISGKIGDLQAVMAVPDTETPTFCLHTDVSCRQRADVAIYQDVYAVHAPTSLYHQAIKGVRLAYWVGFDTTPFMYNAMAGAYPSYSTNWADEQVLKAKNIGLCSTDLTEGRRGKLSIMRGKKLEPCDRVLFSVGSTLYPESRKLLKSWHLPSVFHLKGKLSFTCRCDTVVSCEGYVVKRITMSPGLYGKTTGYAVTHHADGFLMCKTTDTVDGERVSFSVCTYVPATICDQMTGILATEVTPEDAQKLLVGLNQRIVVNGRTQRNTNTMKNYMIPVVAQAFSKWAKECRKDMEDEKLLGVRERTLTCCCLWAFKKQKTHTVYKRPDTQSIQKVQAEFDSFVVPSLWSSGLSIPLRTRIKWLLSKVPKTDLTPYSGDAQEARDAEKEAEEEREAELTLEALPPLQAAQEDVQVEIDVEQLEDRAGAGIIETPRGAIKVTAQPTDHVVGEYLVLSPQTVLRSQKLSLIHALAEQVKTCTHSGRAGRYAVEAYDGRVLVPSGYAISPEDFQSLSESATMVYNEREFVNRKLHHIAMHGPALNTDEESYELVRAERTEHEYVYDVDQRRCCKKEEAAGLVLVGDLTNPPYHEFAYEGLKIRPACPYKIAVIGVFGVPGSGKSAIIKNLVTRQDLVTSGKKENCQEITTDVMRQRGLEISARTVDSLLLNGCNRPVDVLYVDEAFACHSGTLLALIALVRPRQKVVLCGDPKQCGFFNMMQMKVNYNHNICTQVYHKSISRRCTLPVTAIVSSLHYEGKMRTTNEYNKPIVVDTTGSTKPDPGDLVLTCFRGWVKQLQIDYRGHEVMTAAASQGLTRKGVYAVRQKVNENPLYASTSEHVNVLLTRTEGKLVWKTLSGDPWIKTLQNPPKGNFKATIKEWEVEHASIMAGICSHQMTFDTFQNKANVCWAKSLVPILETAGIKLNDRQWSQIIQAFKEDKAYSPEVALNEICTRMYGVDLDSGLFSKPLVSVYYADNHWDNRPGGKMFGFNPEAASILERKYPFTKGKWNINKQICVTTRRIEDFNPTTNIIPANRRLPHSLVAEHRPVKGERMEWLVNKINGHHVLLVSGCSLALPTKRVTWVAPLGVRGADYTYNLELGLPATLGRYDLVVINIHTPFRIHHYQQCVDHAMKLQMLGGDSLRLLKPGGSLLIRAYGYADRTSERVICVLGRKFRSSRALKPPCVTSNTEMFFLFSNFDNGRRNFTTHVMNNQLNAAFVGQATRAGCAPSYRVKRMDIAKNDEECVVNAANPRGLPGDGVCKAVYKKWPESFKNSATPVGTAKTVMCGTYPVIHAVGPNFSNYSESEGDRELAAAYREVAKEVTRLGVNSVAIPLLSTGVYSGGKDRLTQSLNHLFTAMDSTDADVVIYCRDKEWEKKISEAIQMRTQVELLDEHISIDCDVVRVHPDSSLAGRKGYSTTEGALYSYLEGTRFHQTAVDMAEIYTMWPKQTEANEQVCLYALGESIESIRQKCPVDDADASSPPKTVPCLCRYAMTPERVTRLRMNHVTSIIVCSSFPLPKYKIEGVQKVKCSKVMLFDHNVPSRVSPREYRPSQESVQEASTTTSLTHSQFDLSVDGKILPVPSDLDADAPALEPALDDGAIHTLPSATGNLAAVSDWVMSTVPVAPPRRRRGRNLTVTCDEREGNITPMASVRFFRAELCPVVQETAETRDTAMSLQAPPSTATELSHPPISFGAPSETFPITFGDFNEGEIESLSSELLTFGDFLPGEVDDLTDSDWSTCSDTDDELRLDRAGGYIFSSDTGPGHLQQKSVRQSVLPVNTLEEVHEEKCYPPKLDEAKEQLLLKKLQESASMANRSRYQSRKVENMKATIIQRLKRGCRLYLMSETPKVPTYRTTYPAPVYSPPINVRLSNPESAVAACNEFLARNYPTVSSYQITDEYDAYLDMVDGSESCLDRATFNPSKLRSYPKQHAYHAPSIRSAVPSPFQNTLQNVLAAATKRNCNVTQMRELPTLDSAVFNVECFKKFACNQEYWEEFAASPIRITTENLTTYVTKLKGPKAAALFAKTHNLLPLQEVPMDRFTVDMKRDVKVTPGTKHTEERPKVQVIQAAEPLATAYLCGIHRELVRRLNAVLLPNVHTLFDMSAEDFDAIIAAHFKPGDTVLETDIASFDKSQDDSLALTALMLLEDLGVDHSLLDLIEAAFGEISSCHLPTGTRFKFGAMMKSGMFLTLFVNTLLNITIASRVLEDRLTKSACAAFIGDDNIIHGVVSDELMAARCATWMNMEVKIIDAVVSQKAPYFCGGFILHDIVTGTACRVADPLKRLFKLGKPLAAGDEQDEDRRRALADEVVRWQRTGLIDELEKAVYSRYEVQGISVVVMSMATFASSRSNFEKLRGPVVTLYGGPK
- PROTOCOL: Selectivity profile for inhibitors of NSP2Pro chikungunya virus (CHIKV): Full length NSP2 enzyme counterscreen (CHIKV-NSP2) (AID 1964101); further: nearly all actives have a fitted effect of over 65% in size; further: potency means the concentration at half of the fitted maximal effect
- MEASUREMENT_CONTEXT: Full-length CHIKV NSP2 protease enzymatic counterscreen; series mostly up to 50.7 µM
The list shows a part of the results. Results filed as inconclusive are left out. Activity calls are given as the source filed them. Calls come from the whole dose curve.

COMPOUND | Potency
CCC(C)C(=O)OC1C(C)C2(O)C(C=C(CO)CC3(O)C(=O)C(C)=CC32)C2C(C)(C)C12OC(=O)C(C)C (centres undefined) | inactive
COC([CH2][Hg])CNC(=O)c1ccccc1OCC(=O)O (centres undefined) | 18.3 µM (active)
CO[C@]1(NC(=O)CSC(F)F)C(=O)N2C(C(=O)O)=C(CSc3nnnn3CCO)CO[C@H]21 | inactive
C[C@@H]1C[C@@H](O)[C@@]23CO[C@]2(CO)C[C@@H](O)CC3[C@@]12CC(c1ccoc1)OC2=O (some centres undefined) | inactive

====

- PROTOCOL: Viability qHTS for spleen associated tyrosine kinase inhibitor (SYKi) naive MV4-11 cells (AID 1963823); further: nearly all actives have a fitted effect of over 40% in size
- MEASUREMENT_CONTEXT: MV4-11 AML viability, CellTiter-Glo luminescence, 72 h; series mostly up to 45 µM
Records with an inconclusive call do not appear. Active and inactive are the calls of the source. The call rests on the fitted dose curve; in most records, active means well fitted cell-killing curve with a large enough effect; inconclusive means small, poorly fitted or top-dose-only effect, or effect the other way; inactive means no such curve, though single readings can be large or run the other way.
Your response should consist of one outcome taken from 1 for active, -1 for inactive

// known answers, use as guide
COMPOUND | CLASSIFICATION
COc1cc(C[C@@H](C)N)c(OC)cc1Br | -1
CCCCCCC1C(=O)O[C@H](C)[C@H](NC(=O)c2cccc(NC=O)c2O)C(=O)O[C@@H](C)[C@@H]1OC(=O)CC(C)C (some centres not stated) | 1
CCC(C)(OC(C)=O)C(=O)O[C@H]1[C@H](OC(C)=O)C[C@@H]2[C@@](C)([C@@H]3C[C@H]4C=CO[C@H]4O3)[C@H](C)C[C@H](OC(C)=O)[C@@]2(COC(C)=O)[C@@]12CO2 (some centres not stated) | -1
NNc1ccccc1 | -1
COc1ccc(C(=O)c2c(C)n(CCN3CCOCC3)c3cc(I)ccc23)cc1 | 1
C=C(CO)C(=O)O[C@H]1CC(=C)[C@@H]2C[C@H](O)C(=C)[C@@H]2[C@H]2OC(=O)C(=C)[C@@H]21 | 1
Oc1ccc(Cl)cc1 | -1
O=[N+]([O-])/N=C1\NCCN1Cc1ccc(Cl)nc1 | -1

Lab log entry: C[C@]12CCC(=O)C=C1CC[C@@H]1[C@@H]2[C@@H](O)C[C@]2(C)C(=O)CC[C@@H]12 — outcome as called in the assay?
-1

Lab log entry: CC(=O)O[C@@H]1[C@H]2CC[C@H]3[C@@](C)(O)[C@@H]4C[C@H](O)C(C)(C)[C@@]4(O)[C@H](O)C[C@@]13C[C@@]2(C)O — outcome as called in the assay?
-1

Lab log entry: CC1=CC2OC3CC(O)[C@](C)([C@@]2(C)C(O)C1=O)[C@]31CO1 (some centres not stated) — outcome as called in the assay?
1

Lab log entry: CC[C@H]1C[C@@H]2CC[C@@H](O2)[C@@H](C)C(=O)O[C@H](CC)C[C@H]2CC[C@H](O2)[C@H](C)C(=O)O[C@@H](C)C[C@@H]2CC[C@@H](O2)[C@@H](C)C(=O)O[C@H](CC)C[C@H]2CC[C@H](O2)[C@H](C)C(=O)O1 — outcome as called in the assay?
1

Lab log entry: Nc1ccccc1C(=O)O — outcome as called in the assay?
-1

Lab log entry: O=C(O)c1cc(Oc2ccc(C(F)(F)F)cc2Cl)ccc1[N+](=O)[O-] — outcome as called in the assay?
-1

Lab log entry: COc1cc(O)c2c(c1)CCC[C@@H](O)[C@H](O)C(=O)/C=C\C[C@H](C)OC2=O — outcome as called in the assay?
1

Lab log entry: [N-]=[N+]=CC(=O)OC[C@H](N)C(=O)O — outcome as called in the assay?
-1

Lab log entry: N=c1c2c(-c3ccccc3)c(-c3ccccc3)n(Cc3ccccc3)c2ncn1C1CCC(O)CC1 (configuration not stated) — outcome as called in the assay?
1

Lab log entry: C[C@]12CC[C@H](O)CC1=CC[C@@H]1C2CC[C@]2(C)[C@@H](C3=CC(=O)OC3)CC[C@]12O (some centres not stated) — outcome as called in the assay?
1

Lab log entry: CC(C)C1(OO)C=C2C(=O)CC3C(C)(C(=O)O)CCCC3(C)C2CC1 (configuration not stated) — outcome as called in the assay?
-1

Lab log entry: O=C(OC[C@H]1O[C@@H](Oc2ccc(O)cc2CO)[C@H](O)[C@@H](O)[C@@H]1O)c1ccccc1 — outcome as called in the assay?
-1

Lab log entry: Fc1cc(F)c2c(c1)C1C=CCC1C(c1cccnc1)N2 (configuration not stated) — outcome as called in the assay?
1

Lab log entry: O=C(N[C@H]1CN2CCC1CC2)c1ccc(Cl)cc1 — outcome as called in the assay?
-1

Lab log entry: O=C(NC(O)C(Cl)(Cl)Cl)NC(O)C(Cl)(Cl)Cl (configuration not stated) — outcome as called in the assay?
-1
